Recorded IC50 by entry
Molecular target: c-kit kinase (Homo sapiens, UniProt P10721)
Construct: The c-kit (or kinase domain thereof) is an active kinase in AlphaScreen; poly-Histidine tag (in-house protein only) (cleaved yes); host or cells: E. coli BL21(DE3)RIL, co-expressed with PTP1B
Sequence (P10721 26-976): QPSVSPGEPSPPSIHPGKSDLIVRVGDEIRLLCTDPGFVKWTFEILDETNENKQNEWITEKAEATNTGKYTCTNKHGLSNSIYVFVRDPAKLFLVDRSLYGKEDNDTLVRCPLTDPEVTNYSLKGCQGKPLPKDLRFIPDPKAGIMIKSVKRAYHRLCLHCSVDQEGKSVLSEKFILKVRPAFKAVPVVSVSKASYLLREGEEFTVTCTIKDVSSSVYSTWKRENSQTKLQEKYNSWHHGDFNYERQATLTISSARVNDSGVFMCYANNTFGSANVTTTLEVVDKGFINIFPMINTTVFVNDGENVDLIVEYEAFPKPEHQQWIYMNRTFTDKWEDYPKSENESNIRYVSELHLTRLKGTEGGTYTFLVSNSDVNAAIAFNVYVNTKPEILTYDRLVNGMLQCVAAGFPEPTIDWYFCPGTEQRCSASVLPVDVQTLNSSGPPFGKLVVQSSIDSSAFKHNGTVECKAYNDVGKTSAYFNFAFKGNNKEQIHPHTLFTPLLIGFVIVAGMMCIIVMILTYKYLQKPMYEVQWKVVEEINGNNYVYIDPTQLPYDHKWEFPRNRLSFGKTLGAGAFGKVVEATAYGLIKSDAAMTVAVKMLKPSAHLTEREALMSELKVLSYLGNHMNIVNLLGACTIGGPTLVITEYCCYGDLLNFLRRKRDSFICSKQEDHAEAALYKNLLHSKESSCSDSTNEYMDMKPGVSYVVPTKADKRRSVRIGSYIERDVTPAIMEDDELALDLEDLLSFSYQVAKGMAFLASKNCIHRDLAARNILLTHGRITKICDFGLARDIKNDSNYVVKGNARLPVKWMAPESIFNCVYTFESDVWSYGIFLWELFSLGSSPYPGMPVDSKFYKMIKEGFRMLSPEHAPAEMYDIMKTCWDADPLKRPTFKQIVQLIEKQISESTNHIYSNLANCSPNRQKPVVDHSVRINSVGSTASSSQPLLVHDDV
Test: c-Kit biochemical assay, AlphaScreen, 10 μM ATP
Details: c-kit biochemical inhibitory activity; read-out: Biochemical activity (IC50 μM) Kit
Description: IC50 values are determined with respect to inhibition of c-Kit kinase activity, where inhibition of phosphorylation of a peptide substrate is measured as a function of compound concentration. Compounds to be tested were dissolved in DMSO to a concentration of 20 mM. These were diluted 30 μl into 120 μl of DMSO (4 mM) and 1 μl was added to an assay plate. […] The samples were incubated for 60 minutes at room temperature and the signal per well was read on AlphaQuest reader. […]

Molecule: O=S(=O)(Nc1ccc(-c2ncnc3[nH]c(C4CCCC4)cc23)cc1)c1ccc(F)cc1
Experimental System: c-kit kinase (Homo sapiens, UniProt P10721)
IC50: 1 to 10 µM
--
Molecule: Cc1ccc(-c2cc3c(C4=CCC(NS(=O)(=O)c5ccc(OC(F)(F)F)cc5)CC4)ncnc3[nH]2)cn1 (stereo not shown) [P-0544]
Experimental System: c-kit kinase (Homo sapiens, UniProt P10721)
IC50: 10 to 200 µM
--
Molecule: Cc1ccc(S(=O)(=O)Nc2ccc(-c3ncnc4[nH]cc(C)c34)cc2)cc1
Experimental System: c-kit kinase (Homo sapiens, UniProt P10721)
IC50: 1 to 10 µM
--
Molecule: Cc1cc2c(-c3ccc(NS(=O)(=O)c4ccc(Cl)s4)cc3)ncnc2[nH]1
Experimental System: c-kit kinase (Homo sapiens, UniProt P10721)
IC50: 1 to 10 µM
--
Molecule: Cc1nn(C)cc1-c1cc2ncnc(N3CCN(C(=O)NCc4ccc(F)cc4)CC3)c2s1
Experimental System: c-kit kinase (Homo sapiens, UniProt P10721)
IC50: 1 to 10 µM
--
Molecule: CNS(=O)(=O)c1cccc(-c2ncnc3[nH]c(C)cc23)c1
Experimental System: c-kit kinase (Homo sapiens, UniProt P10721)
IC50: 10 to 200 µM
--
Molecule: COc1ccc(NC(=O)N2CCN(c3ncnc4[nH]c(I)cc34)CC2)cc1
Experimental System: c-kit kinase (Homo sapiens, UniProt P10721)
IC50: 1 to 10 µM
--
Molecule: CCOc1ccc(NC(=O)N2CCN(c3ncnc4[nH]ccc34)CC2)cc1
Experimental System: c-kit kinase (Homo sapiens, UniProt P10721)
IC50: 1 to 10 µM
--
Molecule: C[C@H](NC(=O)N1CCN(c2ncnc3[nH]c(-c4cnn(C)c4)cc23)CC1(C)C)c1ccc(Cl)cc1
Experimental System: c-kit kinase (Homo sapiens, UniProt P10721)
IC50: 0.0001 to 1 µM
--
Molecule: NS(=O)(=O)c1cccc(-c2cc3c(N4CCN(C(=O)NCc5ccc(F)cc5)CC4)ncnc3[nH]2)c1
Experimental System: c-kit kinase (Homo sapiens, UniProt P10721)
IC50: 1 to 10 µM
